test target: HLA-A*0201 (human)
measurement protocol: inhibition of 125I-labelled standard peptide binding to purified HLA-A*0201, gel filtration
recorded endpoint: binding affinity ratio (IC50 of standard peptide / IC50 of test peptide)
Format: numeric value only, no unit, no commentary.

Answered cases to consult:
| binder | recorded value |
| --- | --- |
| ATQIPSYKKL (modifications not checked) [… (PAP, position 274)] | 0.0002 |
| AVCGGVLV (modifications not checked) [AVCGGVLV (PSA, position 44)] | 0.0003 |
| CMTTNSHQGT (modifications not checked) [… (PAP, position 372)] | 0.0002 |
| CAGLWTGGKDT (modifications not checked) [… (Kallikrein, position 198)] | 0.0001 |
| CIRNKSVI (modifications not checked) [CIRNKSVI (PSA, position 62)] | 0.0001 |

Query block: Which binding affinity ratio (IC50 of standard peptide / IC50 of test peptide) value is on record for AVEPDRYVI (modifications not checked) [… (PSM, position 365)] ?
Result block: 0.0001

Query block: Which binding affinity ratio (IC50 of standard peptide / IC50 of test peptide) value is on record for CTGAVPLI (modifications not checked) [CTGAVPLI (Kallikrein, position 14)] ?
Result block: 0.0001

Query block: Which binding affinity ratio (IC50 of standard peptide / IC50 of test peptide) value is on record for CIRNKSVIL (modifications not checked) [… (PSA, position 62)] ?
Result block: 0.0003
